Recorded Potency for the following compounds
target: Lysosomal acid glucosylceramidase (Homo sapiens); assay: Glucocerebrosidase-p2 (AID 348); settings: purified GBA, blue fluorogenic substrate, 40 min; note: potency is the fitted concentration of half-maximal effect
Activity calls are given as the source filed them. Cut-off read from the data, not from the text of the source: active = potency below about 10 µM; inactive = the rest.

Please review the entries below; each comes with its answer.
- OCCCN=C1CCCCC1: > 11.4 µM (inactive)
- CC(=O)[C@H]1CC[C@@H]2[C@]1(C)CC=C1[C@]23C=C[C@]2(C[C@H](O)CC[C@@]12C)[C@H](C(=O)O)[C@@H]3C(=O)O: > 11.4 µM (inactive)
- c1ccc([C@H](c2cccc3c2ccc2ccccc23)[C@H](c2ccccc2)c2cccc3c2ccc2ccccc23)cc1: > 11.4 µM (inactive)
- CN(C)CCNc1ccccn1: > 11.4 µM (inactive)
- O=C(c1ccncc1)N1CCC2(CCCN(c3cccc(-c4ccccc4)c3)C2)CC1: > 11.4 µM (inactive)

Potency reading for `CCN(CC)COC(=S)S` : > 11.4 µM (inactive)

---

target: Cytochrome P450 3A4 (Homo sapiens) (UniProt P08684); assay: qHTS Assay for Inhibitors and Substrates of Cytochrome P450 3A4 (AID 884); conditions: recombinant CYP3A4, Luciferin-PPXE luminescence; series mostly up to 57.1 µM; note: nearly all actives have a fitted effect of over 50% in size; note: potency is the fitted concentration of half-maximal effect
Sequence (P08684 whole entry, looked up): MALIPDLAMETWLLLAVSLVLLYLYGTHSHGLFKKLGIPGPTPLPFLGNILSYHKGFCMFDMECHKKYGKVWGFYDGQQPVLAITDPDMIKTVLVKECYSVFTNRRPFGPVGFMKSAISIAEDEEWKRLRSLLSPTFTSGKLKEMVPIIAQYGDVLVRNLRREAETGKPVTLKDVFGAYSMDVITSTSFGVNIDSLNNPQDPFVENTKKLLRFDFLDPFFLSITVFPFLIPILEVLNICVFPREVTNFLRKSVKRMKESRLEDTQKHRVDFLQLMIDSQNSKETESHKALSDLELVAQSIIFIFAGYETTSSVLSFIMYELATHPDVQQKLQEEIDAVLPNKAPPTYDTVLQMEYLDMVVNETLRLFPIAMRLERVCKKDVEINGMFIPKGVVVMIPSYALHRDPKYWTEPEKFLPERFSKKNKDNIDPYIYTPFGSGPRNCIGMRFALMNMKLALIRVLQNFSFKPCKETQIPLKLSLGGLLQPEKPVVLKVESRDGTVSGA
Records with an inconclusive call do not appear. The source made the active and inactive calls. Calls come from the whole dose curve; as a rule, active = well fitted inhibition curve with a large enough effect; inconclusive = small, poorly fitted or top-dose-only effect; inactive = no such curve, though single readings can be large or run the other way.
Observation Type: Potency

• CC(=O)c1ccc(Cl)c(Cl)c1Cl = inactive
• CN(CCc1ccccn1)c1ccc2c(c1)Cc1ccccc1-2 = 2.51 µM (active)
• OCC(CBr)(CBr)CBr = inactive
• O=C(C[C@@H]1C=Cc2ccccc2N1C(=O)c1ccccc1)c1ccccc1 = 3.98 µM (active)
• CC(C)c1cc(C(F)(F)F)nc(NNc2nc(C(C)C)cc(C(F)(F)F)n2)n1 = 3.16 µM (active)

The observed Potency for `O=C(Nc1cccc2ccccc12)c1ccccc1` when tested with Cytochrome P450 3A4 (Homo sapiens) (UniProt P08684) stands at 3.16 µM (active)

The observed Potency for `CN(C)CCCN1c2ccccc2Sc2cnccc21` when tested with Cytochrome P450 3A4 (Homo sapiens) (UniProt P08684) stands at 1.58 µM (active)

The observed Potency for `C=CCN1CCc2c(cc(O)c(O)c2Cl)[C@H](c2ccccc2)C1` when tested with Cytochrome P450 3A4 (Homo sapiens) (UniProt P08684) stands at inactive

The observed Potency for `O=C1c2ccccc2C(=O)C1(O)O` when tested with Cytochrome P450 3A4 (Homo sapiens) (UniProt P08684) stands at inactive

The observed Potency for `OCC(CO)(CBr)CBr` when tested with Cytochrome P450 3A4 (Homo sapiens) (UniProt P08684) stands at inactive

The observed Potency for CCCCC(CC)COC(=O)COc1ccc(Cl)cc1Cl (stereo unspecified) when tested with Cytochrome P450 3A4 (Homo sapiens) (UniProt P08684) stands at inactive

---

assay: MultiTox-Fluor Cytotoxicity Assay - LYMP1-003 - Live Cells (AID 962); conditions: LYMP1-003 lymphoblastoid cells, MultiTox-Fluor live-cell protease fluorescence; series mostly up to 92.2 µM;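 note: cells exposed to compound for 16 hours at 37 °C; cytotoxic hits lower the live-cell protease signal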
Calls of active or inactive are those of the source. Calls follow the shape of the dose curve; as a rule, active = well fitted cell-killing curve with a large enough effect; inconclusive = small, poorly fitted or top-dose-only effect; inactive = flat fitted curve, though single readings scatter.
Parameter call: string, one of yes (active), no (inactive)

- CCCCOC(=O)COc1ccc(Cl)cc1Cl: no

Now consider the entry below.
Exam item: Hi team, can someone confirm the assay call for `O=C(OCc1ccccc1)c1ccccc1O` ?
Marked response: no
